Target: canine FcRn/B2M protein complex (canine FcRn ECD with C-terminal poly-His tag and canine Beta-2-Microglobulin) (canine)
Assay: SPR Biacore 8K, pH 6.0, 25 C; Fc captured by SASA tag on BSA chip, FcRn/B2M 400 nM as analyte
For each record, write down the corresponding kon.

[
  {
    "Binder": "variant canine IgG-B Fc polypeptide Y0W (Leu24Tyr, Asn208Trp) (protein, not shown: small tags and cut ends) CPAPEMLGGPSVFIFPPKPKDTLYIARTPEVTCVVVDLDPEDPEVQISWFVDGKQMQTAKTQPREEQFNGTYRVVSVLPIGHQDWLKGKQFTCKVNNKALPSPIERTISKARGQAHQPSVYVLPPSREELSKNTVSLTCLIKDFFPPDIDVEWQSNGQQEPESKYRTTPPQLDEDGSYFLYSKLSVDKSRWQRGDTFICAVMHEALHWHYTQESLSHSPGK",
    "Recorded Value": "250000 M⁻¹ s⁻¹"
  },
  {
    "Binder": "variant canine IgG-B Fc polypeptide 0YH (Gln83Tyr, Asn208His) (protein, not shown: small tags and cut ends) CPAPEMLGGPSVFIFPPKPKDTLLIARTPEVTCVVVDLDPEDPEVQISWFVDGKQMQTAKTQPREEQFNGTYRVVSVLPIGHYDWLKGKQFTCKVNNKALPSPIERTISKARGQAHQPSVYVLPPSREELSKNTVSLTCLIKDFFPPDIDVEWQSNGQQEPESKYRTTPPQLDEDGSYFLYSKLSVDKSRWQRGDTFICAVMHEALHHHYTQESLSHSPGK",
    "Recorded Value": "673000 M⁻¹ s⁻¹"
  }
]

Continue with the binder presented below.
variant canine IgG-B Fc polypeptide YYH (Leu24Tyr, Gln83Tyr, Asn208His) (protein, not shown: small tags and cut ends) CPAPEMLGGPSVFIFPPKPKDTLYIARTPEVTCVVVDLDPEDPEVQISWFVDGKQMQTAKTQPREEQFNGTYRVVSVLPIGHYDWLKGKQFTCKVNNKALPSPIERTISKARGQAHQPSVYVLPPSREELSKNTVSLTCLIKDFFPPDIDVEWQSNGQQEPESKYRTTPPQLDEDGSYFLYSKLSVDKSRWQRGDTFICAVMHEALHHHYTQESLSHSPGK has a reported kon of 360000 M⁻¹ s⁻¹
